test-target: UniProt P35968
Sequence (P35968 20-1356): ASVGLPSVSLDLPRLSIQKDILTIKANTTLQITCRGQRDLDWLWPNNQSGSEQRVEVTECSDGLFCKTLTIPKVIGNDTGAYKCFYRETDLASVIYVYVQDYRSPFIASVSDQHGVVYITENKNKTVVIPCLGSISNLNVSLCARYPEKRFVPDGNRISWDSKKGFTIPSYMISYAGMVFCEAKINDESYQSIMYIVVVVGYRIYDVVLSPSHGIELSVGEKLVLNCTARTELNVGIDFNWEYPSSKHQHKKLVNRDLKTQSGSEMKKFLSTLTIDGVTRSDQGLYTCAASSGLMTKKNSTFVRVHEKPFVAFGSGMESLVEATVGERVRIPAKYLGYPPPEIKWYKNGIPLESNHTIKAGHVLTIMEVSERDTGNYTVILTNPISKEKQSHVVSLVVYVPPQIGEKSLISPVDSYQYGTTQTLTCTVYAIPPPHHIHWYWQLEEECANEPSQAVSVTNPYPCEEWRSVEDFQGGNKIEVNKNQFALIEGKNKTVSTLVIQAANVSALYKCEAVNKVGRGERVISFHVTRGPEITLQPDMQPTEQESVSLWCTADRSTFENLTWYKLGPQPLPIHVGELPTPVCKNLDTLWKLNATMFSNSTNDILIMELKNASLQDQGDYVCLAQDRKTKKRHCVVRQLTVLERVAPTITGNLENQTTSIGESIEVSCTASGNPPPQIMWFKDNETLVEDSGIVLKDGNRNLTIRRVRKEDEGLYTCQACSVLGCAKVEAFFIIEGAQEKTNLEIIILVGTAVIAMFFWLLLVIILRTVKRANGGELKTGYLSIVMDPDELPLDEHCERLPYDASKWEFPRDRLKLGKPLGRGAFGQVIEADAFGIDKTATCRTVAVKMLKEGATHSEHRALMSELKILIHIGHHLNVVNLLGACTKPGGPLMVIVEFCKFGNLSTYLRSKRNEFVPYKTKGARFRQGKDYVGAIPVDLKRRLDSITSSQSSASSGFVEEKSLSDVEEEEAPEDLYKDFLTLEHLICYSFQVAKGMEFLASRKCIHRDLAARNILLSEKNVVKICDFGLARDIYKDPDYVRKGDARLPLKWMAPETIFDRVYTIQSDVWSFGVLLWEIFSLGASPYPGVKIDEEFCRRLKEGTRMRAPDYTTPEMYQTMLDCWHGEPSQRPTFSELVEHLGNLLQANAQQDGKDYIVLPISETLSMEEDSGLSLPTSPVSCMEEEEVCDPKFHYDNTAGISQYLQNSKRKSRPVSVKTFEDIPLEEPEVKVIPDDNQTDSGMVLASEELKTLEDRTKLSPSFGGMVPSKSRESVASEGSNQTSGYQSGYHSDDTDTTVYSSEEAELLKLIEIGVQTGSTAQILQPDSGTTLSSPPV
test-method-notes: KDR (VEGFR2) (enzymatic assay), TR-FRET
Type: biochemical
assay-conditions: 3 μM ATP; read-out: VEGFR2 (KDR) pIC50 (converted)
parameter: IC50 (nM)
# unit: nM | format: bare number

COc1cc(OC)cc(/C(=C/C#N)c2ccc3ncc(-c4cnn(C)c4)nc3c2)c1 [Compound 3]    3980
COc1cc(OC)cc(/C(=C\C#N)c2ccc3ncc(-c4cnn(C)c4)nc3c2)c1 [Compound 4]    661
COc1cc(OC)cc(C(=O)c2ccc3ncc(-c4cnn(C)c4)nc3c2)c1 [Compound 2]    708
COc1cc(OC)cc(/C(=C/CNC(C)C)c2ccc3ncc(-c4cnn(C)c4)nc3c2)c1 [Compound 9]    4470
COc1cc(OC)cc(C2(c3ccc4ncc(-c5cnn(C)c5)nc4c3)CC2)c1 [Compound 30]    501

State its IC50 on UniProt P35968: Cn1cc(-c2cnc3ccc(C(O)c4ccccc4)cc3n2)cn1 (centres unmarked) [Compound 28] 1580

Another molecule to look at: COc1cc(OC)cc(/C(=C\CNC(C)C)c2ccc3ncc(-c4cnn(C)c4)nc3c2)c1 [Compound 8] 389

Another molecule to look at: COc1cc(OC)cc(C(CC(C)(O)CNC(C)C)c2ccc3ncc(-c4cnn(C)c4)nc3c2)c1.Cl (centres unmarked) [Compound 25] 562

Another molecule to look at: COc1cc(OC)cc(/C(=C\CNCC(F)(F)F)c2ccc3ncc(-c4cnn(C)c4)nc3c2)c1 [Compound 14] 245

Another molecule to look at: COc1cc(OC)cc(C(CCN)c2ccc3ncc(-c4cnn(C)c4)nc3c2)c1.Cl (centres unmarked) [Compound 20] 4680

Another molecule to look at: COc1cc(OC)cc(C(CCN2CCCC2=O)c2ccc3ncc(-c4cnn(C)c4)nc3c2)c1.Cl (centres unmarked) [Compound 7] 347

###

test-target: Ba/F3-Flt3-transfected cells (Homo sapiens, UniProt P36888, cells depend on it, form not given)
Construct: BAF3-FLT3 (MIN IL3) pIC50; other: minus IL3
test-method-notes: Ba/F3-Flt3 (minus IL3 or plus IL3) cellular proliferation assay
Type: cell-based
assay-conditions: minus IL3
# reported BAF3-FLT3 (MIN IL3) pIC50; entries follow

COc1cc(OC)cc(/C(=C\CN(C)C)c2ccc3ncc(-c4cnn(C)c4)nc3c2)c1    <5

Name the recorded BAF3-FLT3 (MIN IL3) pIC50 for COc1cc(OC)cc(C(CCNC(C)C)c2ccc3ncc(-c4cnn(C)c4)nc3c2)c1 (single isomer, unassigned) [Compound 19a] . <5

Another molecule to look at: `COc1cc(OC)cc(/C(=C\CNC(C)C)c2ccc3ncc(-c4cnn(C)c4)nc3c2)c1` 5.09

Another molecule to look at: COc1cc(OC)cc(C(CCN2CCCC2=O)c2ccc3ncc(-c4cnn(C)c4)nc3c2)c1.Cl (stereo not shown) <5

###

test-target: FGFR1 (h) (Homo sapiens, UniProt P11362)
Sequence (P11362 22-822): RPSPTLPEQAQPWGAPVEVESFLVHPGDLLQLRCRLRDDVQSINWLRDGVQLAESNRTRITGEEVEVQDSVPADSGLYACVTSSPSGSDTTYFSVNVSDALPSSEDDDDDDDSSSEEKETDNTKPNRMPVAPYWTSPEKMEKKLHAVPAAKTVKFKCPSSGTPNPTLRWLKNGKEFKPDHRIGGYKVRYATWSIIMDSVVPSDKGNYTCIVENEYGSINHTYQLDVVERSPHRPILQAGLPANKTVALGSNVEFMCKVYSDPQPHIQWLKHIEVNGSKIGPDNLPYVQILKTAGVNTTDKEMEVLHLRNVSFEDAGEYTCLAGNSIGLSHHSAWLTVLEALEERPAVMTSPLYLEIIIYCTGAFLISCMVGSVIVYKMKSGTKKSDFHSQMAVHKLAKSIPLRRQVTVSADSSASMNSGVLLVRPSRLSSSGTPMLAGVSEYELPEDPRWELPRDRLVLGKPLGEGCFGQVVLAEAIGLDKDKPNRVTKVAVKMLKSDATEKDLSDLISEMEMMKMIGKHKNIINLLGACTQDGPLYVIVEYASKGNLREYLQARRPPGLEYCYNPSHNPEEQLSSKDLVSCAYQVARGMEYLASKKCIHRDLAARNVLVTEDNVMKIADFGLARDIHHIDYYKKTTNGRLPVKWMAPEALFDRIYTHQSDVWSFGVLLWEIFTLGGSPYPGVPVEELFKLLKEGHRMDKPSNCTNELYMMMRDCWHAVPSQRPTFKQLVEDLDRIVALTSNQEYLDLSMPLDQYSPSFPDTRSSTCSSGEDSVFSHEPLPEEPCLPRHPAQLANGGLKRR
test-method-notes: FGFR1 (enzymatic assay), TR-FRET
Assay type: biochemical
assay-conditions: 5 μM ATP; read-out: FGFR1 pIC50 (converted)
parameter: log10 IC50 (log10 of the value in nM)
The common logarithm of IC50 in nM is what is listed.

Illustrative cases are given below, each with its answer.
COc1cc(OC)cc(/C(=C/CN(C)C)c2ccc3ncc(-c4cnn(C)c4)nc3c2)c1 [Compound 34]    2.12
CNCC(O)(c1cc(OC)cc(OC)c1)c1ccc2ncc(-c3cnn(C)c3)nc2c1.Cl (single isomer, unassigned) [Compound 38]    2.89
COc1cc(OC)cc(C(CC(C)(O)CNC(C)C)c2ccc3ncc(-c4cnn(C)c4)nc3c2)c1.Cl (centres unmarked) [Compound 25]    2.90
COc1cc(OC)cc(C(=O)c2ccc3ncc(-c4cnn(C)c4)nc3c2)c1 [Compound 2]    2.07
COc1cc(OC)cc(C(CCN2CCCC2=O)c2ccc3ncc(-c4cnn(C)c4)nc3c2)c1.Cl (centres unmarked) [Compound 7]    1.75
COc1cc(OC)cc(/C(=C\C#N)c2ccc3ncc(-c4cnn(C)c4)nc3c2)c1 [Compound 4]    1.73
COc1cc(OC)cc(C(CCN(C)C)c2ccc3ncc(-c4cnn(C)c4)nc3c2)c1.Cl (centres unmarked) [Compound 21]    1.57
COc1cc(OC)cc(C(CCCN)c2ccc3ncc(-c4cnn(C)c4)nc3c2)c1.Cl (centres unmarked) [Compound 40]    2.69

Name the recorded log10 IC50 for COc1cc(OC)cc(C(CCO)c2ccc3ncc(-c4cnn(C)c4)nc3c2)c1 (centres unmarked) [Compound 22] . 2.03

Another compound to look at: COc1cc(OC)cc(C(CCNC(C)C)c2ccc3ncc(-c4cnn(C)c4)nc3c2)c1 (single isomer, unassigned) [Compound 19a] 0.88

Another compound to look at: COc1cc(OC)cc(C2(c3ccc4ncc(-c5cnn(C)c5)nc4c3)CC2)c1 [Compound 30] 1.96

Another compound to look at: COc1cc(OC)cc(C(CCNC(C)C)c2ccc3ncc(-c4cnn(C)c4)nc3c2)c1 (single isomer, unassigned) [Compound 32a] 2.82

###

test-target: Ba/F3-FGFR3-transfected cells (Homo sapiens)
Construct: BAF3-FGFR3 (MIN IL3) pIC50; other: minus IL3
Sequence (P22607 whole entry, change not shown): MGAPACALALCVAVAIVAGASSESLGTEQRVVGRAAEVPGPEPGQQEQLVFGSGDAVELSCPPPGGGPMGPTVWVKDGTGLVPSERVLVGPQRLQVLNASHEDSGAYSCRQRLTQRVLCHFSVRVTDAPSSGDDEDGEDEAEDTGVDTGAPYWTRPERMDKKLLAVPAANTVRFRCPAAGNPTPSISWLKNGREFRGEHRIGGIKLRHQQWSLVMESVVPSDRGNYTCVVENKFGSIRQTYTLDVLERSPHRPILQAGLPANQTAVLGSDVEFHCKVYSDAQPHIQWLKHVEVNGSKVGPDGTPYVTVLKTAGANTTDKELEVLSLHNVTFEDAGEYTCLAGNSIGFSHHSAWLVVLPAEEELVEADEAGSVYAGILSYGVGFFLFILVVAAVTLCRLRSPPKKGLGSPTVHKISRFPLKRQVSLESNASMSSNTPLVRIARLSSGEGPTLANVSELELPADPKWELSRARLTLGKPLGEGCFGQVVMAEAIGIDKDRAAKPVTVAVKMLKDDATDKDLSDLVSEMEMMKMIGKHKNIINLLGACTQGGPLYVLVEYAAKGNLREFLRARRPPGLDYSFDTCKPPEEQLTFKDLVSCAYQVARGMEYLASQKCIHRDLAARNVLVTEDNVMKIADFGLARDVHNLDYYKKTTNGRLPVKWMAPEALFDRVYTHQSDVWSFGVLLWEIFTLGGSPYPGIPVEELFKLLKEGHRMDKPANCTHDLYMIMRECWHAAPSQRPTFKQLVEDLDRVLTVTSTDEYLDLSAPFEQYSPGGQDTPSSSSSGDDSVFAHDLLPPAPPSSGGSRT
test-method-notes: Ba/F3-FGFR3 (minus IL3 or plus IL3) cellular proliferation assay
Type: cell-based
assay-conditions: minus IL3
parameter: BAF3-FGFR3 (MIN IL3) pIC50
Just the number, please.

Illustrative cases are given below, each with its answer.
COc1cc(OC)cc(C(CCNC(C)C)c2ccc3ncc(-c4cnn(C)c4)nc3c2)c1.Cl (centres unmarked)    6.44
COc1cc(OC)cc(C(CC(C)(O)CNC(C)C)c2ccc3ncc(-c4cnn(C)c4)nc3c2)c1.Cl (centres unmarked)    5.13

Name the recorded BAF3-FGFR3 (MIN IL3) pIC50 for `COc1cc(OC)cc(/C(=C\CN(C)C)c2ccc3ncc(-c4cnn(C)c4)nc3c2)c1` . 6.27

Another compound to look at: COc1cc(OC)cc(C(CCN)c2ccc3ncc(-c4cnn(C)c4)nc3c2)c1.Cl (centres unmarked) 6.04

Another compound to look at: COc1cc(OC)cc(C(CCO)c2ccc3ncc(-c4cnn(C)c4)nc3c2)c1 (centres unmarked) 5.65

Another compound to look at: COc1cc(OC)cc(C(CCNC(C)C)c2ccc3ncc(-c4cnn(C)c4)nc3c2)c1 (single isomer, unassigned) [Compound 19a] 6.67

###

# reported IC50; entries follow
test-target: FGFR2 (h) (Homo sapiens)
test-method-notes: FGFR2 (enzymatic assay), TR-FRET
Assay type: biochemical
assay-conditions: 0.4 μM ATP; read-out: FGFR2 pIC50 (converted)
# unit: µM | format: bare number

COc1cc(OC)cc(/C(=C\CNCC(F)(F)F)c2ccc3ncc(-c4cnn(C)c4)nc3c2)c1 [Compound 14]    0.0129

Name the recorded IC50 for COc1cc(OC)cc(/C(=C\CN(C)C)c2ccc3ncc(-c4cnn(C)c4)nc3c2)c1 [Compound 10] . 0.0158

Another molecule to look at: COc1cc(OC)cc(C(CCNC(C)C)c2ccc3ncc(-c4cnn(C)c4)nc3c2)c1.Cl (centres unmarked) [Compound 29] 0.0257

Another molecule to look at: COc1cc(OC)cc(C2(c3ccc4ncc(-c5cnn(C)c5)nc4c3)CC2)c1 [Compound 30] 0.0501

###

test-target: FGFR2 (h) (Homo sapiens, UniProt P21802)
Sequence (P21802 22-821): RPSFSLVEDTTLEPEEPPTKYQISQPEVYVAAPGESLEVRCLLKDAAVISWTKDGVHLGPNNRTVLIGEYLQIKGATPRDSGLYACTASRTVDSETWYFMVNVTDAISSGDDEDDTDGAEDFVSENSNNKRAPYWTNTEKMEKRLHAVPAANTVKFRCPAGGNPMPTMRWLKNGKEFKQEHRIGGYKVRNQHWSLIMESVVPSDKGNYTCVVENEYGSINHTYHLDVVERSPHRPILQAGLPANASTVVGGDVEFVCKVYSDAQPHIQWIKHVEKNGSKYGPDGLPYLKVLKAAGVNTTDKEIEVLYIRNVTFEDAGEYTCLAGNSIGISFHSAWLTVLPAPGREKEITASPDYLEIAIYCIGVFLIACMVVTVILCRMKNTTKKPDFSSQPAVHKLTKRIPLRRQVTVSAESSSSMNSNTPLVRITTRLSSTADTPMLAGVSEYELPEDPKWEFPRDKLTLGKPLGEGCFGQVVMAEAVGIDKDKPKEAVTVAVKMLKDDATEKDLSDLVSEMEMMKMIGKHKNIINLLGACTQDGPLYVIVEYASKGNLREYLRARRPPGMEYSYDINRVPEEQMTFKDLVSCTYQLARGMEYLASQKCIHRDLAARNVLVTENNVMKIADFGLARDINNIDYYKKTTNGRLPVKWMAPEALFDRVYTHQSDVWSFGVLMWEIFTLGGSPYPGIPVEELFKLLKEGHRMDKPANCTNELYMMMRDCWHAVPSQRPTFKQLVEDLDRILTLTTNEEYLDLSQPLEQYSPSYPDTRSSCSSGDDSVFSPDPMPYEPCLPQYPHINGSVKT
test-method-notes: FGFR2 (enzymatic assay), TR-FRET
Type: biochemical
assay-conditions: 0.4 μM ATP; read-out: FGFR2 pIC50 (converted)
# reported IC50; entries follow

Illustrative cases are given below, each with its answer.
COc1cc(OC)cc(C(CCNC(C)C)c2ccc3ncc(-c4cnn(C)c4)nc3c2)c1 (single isomer, unassigned) [Compound 32a]    851 nM
COc1cc(OC)cc(C(CCO)c2ccc3ncc(-c4cnn(C)c4)nc3c2)c1 (stereo not drawn)    126 nM
COc1cc(OC)cc(C(CCCN)c2ccc3ncc(-c4cnn(C)c4)nc3c2)c1.Cl (stereo not drawn)    427 nM
COc1cc(OC)cc(C(CCN(C)C)c2ccc3ncc(-c4cnn(C)c4)nc3c2)c1.Cl (stereo not drawn)    67.6 nM
COc1cc(OC)cc(C(CCN)c2ccc3ncc(-c4cnn(C)c4)nc3c2)c1.Cl (stereo not drawn)    67.6 nM

Name the recorded IC50 for COc1cc(OC)cc(C(NCCNC(C)C)c2ccc3ncc(-c4cnn(C)c4)nc3c2)c1.Cl (single isomer, unassigned) [Compound 24] . 324 nM

Another compound to look at: `COc1cc(OC)cc(/C(=C/CNC(C)C)c2ccc3ncc(-c4cnn(C)c4)nc3c2)c1` 87.1 nM

Another compound to look at: COc1cc(OC)cc(C(O)(CNCCNC(C)C)c2ccc3ncc(-c4cnn(C)c4)nc3c2)c1 (single isomer, unassigned) [Compound 6] 813 nM

Another compound to look at: `COc1cc(OC)cc(/C(=C/CN(C)C)c2ccc3ncc(-c4cnn(C)c4)nc3c2)c1` 170 nM

Another compound to look at: COc1cc(OC)cc(C(CCNC(C)C)c2ccc3ncc(-c4cnn(C)c4)nc3c2)c1 (single isomer, unassigned) [Compound 19a] 17.8 nM

Another compound to look at: COc1cc(OC)cc(C(CC#N)c2ccc3ncc(-c4cnn(C)c4)nc3c2)c1 (stereo not drawn) 145 nM

Another compound to look at: COc1cc(OC)cc(C(NCCNC(C)C)c2ccc3ncc(-c4cnn(C)c4)nc3c2)c1.Cl (single isomer, unassigned) [Compound 39] > 1000 nM

Another compound to look at: `COc1cc(OC)cc(/C(=C\CNC(C)C)c2ccc3ncc(-c4cnn(C)c4)nc3c2)c1` 10.7 nM

Another compound to look at: Cn1cc(-c2cnc3ccc(C(O)c4ccccc4)cc3n2)cn1 (stereo not drawn) 2630 nM

Another compound to look at: `COc1cc(OC)cc(C(=O)c2ccc3ncc(-c4cnn(C)c4)nc3c2)c1` 209 nM

Another compound to look at: `COc1cc(OC)cc(/C(=C\C#N)c2ccc3ncc(-c4cnn(C)c4)nc3c2)c1` 102 nM

Another compound to look at: COc1cc(OC)cc(C(CCN2CCCC2=O)c2ccc3ncc(-c4cnn(C)c4)nc3c2)c1.Cl (stereo not drawn) 38 nM

Another compound to look at: COc1cc(OC)cc(C(CCNCC(F)(F)F)c2ccc3ncc(-c4cnn(C)c4)nc3c2)c1.Cl (stereo not drawn) 380 nM

Another compound to look at: CNCC(O)(c1cc(OC)cc(OC)c1)c1ccc2ncc(-c3cnn(C)c3)nc2c1.Cl (single isomer, unassigned) [Compound 37] 589 nM

Another compound to look at: COc1cc(OC)cc(C(O)(CNCCNC(C)C)c2ccc3ncc(-c4cnn(C)c4)nc3c2)c1 (single isomer, unassigned) [Compound 5] ~741 nM

Another compound to look at: `COc1cc(OC)cc(/C(=C/C#N)c2ccc3ncc(-c4cnn(C)c4)nc3c2)c1` 5130 nM
